- assay notes: HEK293 cellular growth inhibition assay (CellTiter-Glo)
- Type: cell-based
- settings: human, HEK293 cells, 7 days of incubation
This section presents molecules with their documented CC50 at 7 days values.

Worked examples follow.
# molecule, CC50 at 7 days
measured = [
    ("C=CC(=O)N1CCN(CCCn2c(C#N)cc3c(C)c(CN4CCC5(CC4)CN(c4ncnc6ccc(CC(F)(F)F)cc46)C5)ccc32)CC1", "2 to 5 µM"),
    ("Cc1c(CN2CCC3(CC2)CN(c2ncnc4ccc(CC(F)(F)F)cc24)C3)ccc2c1cc(C#N)n2CC1CCNC(=O)CC1 (stereo not shown)", "≤ 2 µM"),
    ("Cc1c(CN2CCC3(CC2)CN(c2ncnc4ccc(CC(F)(F)F)cc24)C3)ccc2c1cc(C#N)n2CC(C)N1CCNC(=O)C1 (stereo not shown)", "2 to 5 µM"),
    ("COc1cc2c(cc1CN1CCC3(CC1)CN(c1ncnc4ccc(CC(F)(F)F)cc14)C3)cc(C#N)n2CC(C)N1CCN(S(C)(=O)=O)CC1 (stereo not shown)", "2 to 5 µM"),
    ("Cc1c(CN2CCC3(CC2)CN(c2ncnc4ccc(CC(F)(F)F)cc24)C3)ccc2c1cc(C#N)n2C[C@H]1CNC(=O)CO1", "2 to 5 µM"),
]

Entry `CC(=O)NC12CC(Cn3c(C#N)cc4c(C)c(CN5CCC6(CC5)CN(c5ncnc7ccc(CC(F)(F)F)cc57)C6)ccc43)(C1)C2` : reported CC50 at 7 days = ?
2 to 5 µM

For Cc1c(CN2CCC3(CC2)CN(c2nncc4ccc(CC(F)(F)F)cc24)C3)ccc2c1cc(C#N)n2CC(C)N1CCN(S(C)(=O)=O)CC1 (stereo not shown) then?
5 to 10 µM

For C=CC(=O)N1CCN(C(C)Cn2c(C#N)cc3c(C)c(CN4CCC5(CC4)CN(c4ncnc6ccc(CC(F)(F)F)cc46)C5)ccc32)CC1 (stereo not shown) then?
2 to 5 µM

For Cc1c(CN2CCC3(CC2)CN(c2ncnc4ccc(CC(F)(F)F)cc24)C3)ccc2c1cc(C#N)n2CC1CCNC(=O)C1 (stereo not shown) then?
2 to 5 µM
